The reported measurements were obtained from the Human Domainome abundance scans (Beltran et al. 2025).

B1: Far upstream element-binding protein 1, residues 98 to 169; numbered along this chain, Q96AE4 (parent)
chain: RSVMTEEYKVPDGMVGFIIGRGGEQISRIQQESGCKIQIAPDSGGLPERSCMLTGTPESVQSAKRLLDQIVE

Variants of: B1
Assay: abundance fitness (aPCA) (normalised: wild type 0, dead -1); higher = more abundant; growth selection in yeast, the domain comes from the species named
Settings: Homo sapiens
Answer no if abundance fitness is under -0.02, and yes if it is -0.02 or more.

Observe how each entry below is paired with its result.
L53T no
E6I no

API: above_or_equal(metric=abundance fitness, cutoff=-0.02) for item G45K
no

API: above_or_equal(metric=abundance fitness, cutoff=-0.02) for item D12R
no

API: above_or_equal(metric=abundance fitness, cutoff=-0.02) for item E72G
yes

API: above_or_equal(metric=abundance fitness, cutoff=-0.02) for item S2K
yes

API: above_or_equal(metric=abundance fitness, cutoff=-0.02) for item S62K
yes

API: above_or_equal(metric=abundance fitness, cutoff=-0.02) for item G44M
yes

API: above_or_equal(metric=abundance fitness, cutoff=-0.02) for item G20E
yes

API: above_or_equal(metric=abundance fitness, cutoff=-0.02) for item Y8W
no

API: above_or_equal(metric=abundance fitness, cutoff=-0.02) for item I18P
no

API: above_or_equal(metric=abundance fitness, cutoff=-0.02) for item E58P
no

API: above_or_equal(metric=abundance fitness, cutoff=-0.02) for item G22F
no

API: above_or_equal(metric=abundance fitness, cutoff=-0.02) for item A63N
no

API: above_or_equal(metric=abundance fitness, cutoff=-0.02) for item L67T
no

API: above_or_equal(metric=abundance fitness, cutoff=-0.02) for item Q38M
no

API: above_or_equal(metric=abundance fitness, cutoff=-0.02) for item V15F
yes

API: above_or_equal(metric=abundance fitness, cutoff=-0.02) for item G13H
no

API: above_or_equal(metric=abundance fitness, cutoff=-0.02) for item S43K
no

API: above_or_equal(metric=abundance fitness, cutoff=-0.02) for item Q25C
no

API: above_or_equal(metric=abundance fitness, cutoff=-0.02) for item R49F
no

API: above_or_equal(metric=abundance fitness, cutoff=-0.02) for item S50A
no
